system: Danio rerio Tg(wt1b:EGFP) embryo, pronephros; assay: pronephric angle neck segment to proximal convoluted tubule (mean of left and right), fold change vs DMSO control; higher = larger pronephric angle; details: 25 µM; exposure: 24-48 hpf
Where a name gives a salt, the structure may show the parent alone.
The entries below are paired with their reported pronephric angle neck segment.
Provide a numeric answer; units are not to be included.

Here is how some compounds turned out for pronephric angle neck segment.
Compound	Reported
C1N2CN3CN1CN(C2)C3	0.994
O=C1OC(CN2CCOCC2)CN1/N=C/c1ccc([N+](=O)[O-])o1 (configuration not stated) [Furaltadone hydrochloride]	0.995
CC1=Nc2ccc(Cl)cc2S(=O)(=O)N1 [Diazoxide]	0.942

Give the value of pronephric angle neck segment reported for the following: CN(C)CCOC(=O)C(c1ccccc1)C1(O)CCCC1 (configuration not stated) [Cyclopentolate hydrochloride]
1.02

Recall and state the measured pronephric angle neck segment for Nc1nc2c(ncn2COC(CO)CO)c(=O)[nH]1 .
0.998

Provide one value: measured pronephric angle neck segment of Nc1ccc(S(=O)(=O)Nc2ccc(Cl)nn2)cc1
1.02

Quickly give me recorded pronephric angle neck segment for CN[C@H](CC(C)C)C(=O)N[C@H]1C(=O)N[C@@H](CC(N)=O)C(=O)N[C@H]2C(=O)N[C@H]3C(=O)N[C@H](C(=O)N[C@H](C(=O)O)c4cc(O)cc(O)c4-c4cc3ccc4O)[C@H](O)c3ccc(c(Cl)c3)Oc3cc2cc(c3O[C@@H]2O[C@H](CO)[C@@H](O)[C@H](O)[C@H]2O[C@H]2C[C@](C)(N)[C@H](O)[C@H](C)O2)Oc2ccc(cc2Cl)[C@H]1O [Vancomycin hydrochloride]
1.06

###

system: Danio rerio Tg(wt1b:EGFP) embryo, pronephros; assay: glomerular separation, fold change vs DMSO control; higher = glomeruli further apart (abnormal); conditions: 25 µM; exposure: 24-48 hpf
Where a name gives a salt, the structure may show the parent alone.
glomerular separation below 0.9 gives Not met; glomerular separation at or above it gives Met.

Study these solved cases before continuing.
Molecule	Cat
Clc1ccc(C(c2ccccc2Cl)C(Cl)Cl)cc1 (stereo unspecified) [Mitotane]	Not met
CC[C@H]1OC(=O)[C@H](C)[C@@H](O[C@H]2C[C@@](C)(OC)[C@@H](O)[C@H](C)O2)[C@H](C)[C@@H](O[C@@H]2O[C@H](C)C[C@H](N(C)C)[C@H]2O)[C@](C)(O)C[C@@H](C)CN(C)[C@H](C)[C@@H](O)[C@]1(C)O [Azithromycin]	Met

Assess whether reported glomerular separation for COc1c(O[C@@H]2O[C@H](CO)[C@@H](O)[C@H](O)[C@H]2O)cc2c(c1OC)-c1ccc(SC)c(=O)cc1[C@@H](NC(C)=O)CC2 [Thiocolchicoside] sits at 0.9 or higher.
Met

Can C[N+](C)(CCOc1ccccc1)Cc1ccccc1.O=C([O-])c1cc2ccccc2cc1O [Bephenium hydroxynaphthoate] be said to have glomerular separation at or above 0.9?
Met

Please indicate if the recorded glomerular separation for C[C@]12CCC(=O)C=C1CC[C@@H]1[C@@H]2C(=O)C[C@@]2(C)[C@H]1CC[C@]2(O)C(=O)CO [Cortisone] meets or exceeds 0.9.
Met

State whether the measured glomerular separation reaches 0.9, counting equality as reaching it, for CCCc1nn(C)c2c(=O)[nH]c(-c3cc(S(=O)(=O)N4CCN(C)CC4)ccc3OCC)nc12 [Sildenafil]
Met

Evaluate CC(=O)N[C@@H](CS)C(=O)O [Acetylcysteine] : glomerular separation at minimum 0.9?
Not met

Dear colleague, could you confirm whether O=C(COc1ccc(Cl)cc1)N1CCN(Cc2ccc3c(c2)OCO3)CC1 [Fipexide hydrochloride] has glomerular separation at or above 0.9?
Met

I'd appreciate it if you could say whether C[C@H]1c2cccc(O)c2C(=O)C2=C(O)[C@]3(O)C(=O)C(C(N)=O)=C(O)[C@@H](N(C)C)[C@@H]3[C@@H](O)[C@@H]21 [Doxycycline hydrochloride] has glomerular separation at least equal to 0.9.
Met

Check if glomerular separation >= 0.9 (inclusive). Item: Nc1nc(=O)[nH]cc1F [Flucytosine]
Not met

Textbook exercise: given the entry Cc1cc(N)c2ccccc2[n+]1CCCCCCCCCC[n+]1c(C)cc(N)c2ccccc21 [Dequalinium dichloride] , state whether its glomerular separation is greater than or equal to 0.9.
Met

Would you say Nc1cc(-c2ccncc2)c[nH]c1=O [Amrinone] shows glomerular separation at minimum 0.9?
Not met
